Tested on: HRV type 2
assay: Inhibition of viral cytopathic effect (CPE), HRV type 2 in KB cells
Assay type: cell-based, human rhinovirus
cond: HRV type 2, KB cells; concentration yielding 50% antiviral efficacy
experimental_readout: Activity on Rhinovirus Type 2 EC50 (µg/mL)
Record the value in µg/mL, omitting the unit from your answer.

# annotated cases, reported Activity on Rhinovirus Type 2 EC50 shown
{"compound_structure": "Cc1cc(-c2noc(C(F)(F)F)n2)cc(C)c1OCCCc1cc(COCCOCCOCc2cc(CCCOc3c(C)cc(-c4noc(C(F)(F)F)n4)cc3C)on2)no1", "study_target": "HRV type 2", "Activity on Rhinovirus Type 2 EC50 / µg/mL": 0.02}
{"compound_structure": "Cc1cc(-c2noc(C(F)(F)F)n2)cc(C)c1OCCCc1cc(COCCOCCOCCOCCOCc2ccc(COCCOCCOCCOCCOCc3cc(CCCOc4c(C)cc(-c5noc(C(F)(F)F)n5)cc4C)on3)cc2)no1", "study_target": "HRV type 2", "Activity on Rhinovirus Type 2 EC50 / µg/mL": 0.09}
{"compound_structure": "Cc1cc(-c2ccccc2)cc(C)c1OCCCc1cc(COCCOCCOCCOCCNC(=O)Nc2ccc(Cc3ccc(NC(=O)NCCOCCOCCOCCOCc4cc(CCCOc5c(C)cc(-c6ccccc6)cc5C)on4)cc3)cc2)no1", "study_target": "HRV type 2", "Activity on Rhinovirus Type 2 EC50 / µg/mL": 0.6}

Could you share which Activity on Rhinovirus Type 2 EC50 value was measured for Cc1cc(-c2ccccc2)cc(C)c1OCCCc1cc(COCCOCCOCCOCCOCCOCCOCc2cc(CCCOc3c(C)cc(-c4ccccc4)cc3C)on2)no1 ?
0.09

Cc1cc(-c2ccccc2)cc(C)c1OCCCc1cc(COCCOCCOCCOCc2cc(CCCOc3c(C)cc(-c4ccccc4)cc3C)on2)no1 , same question.
0.1

Quick one: Cc1cc(-c2ccccc2)cc(C)c1OCCCc1cc(COCCOCCOCCO)no1
0.001

Also Cc1cc(-c2ccccc2)cc(C)c1OCCCc1cc(COCCOCCOCCOCCOCCOCCO)no1 ?
0.1

Same thing, different compound: Cc1cc(-c2noc(C(F)(F)F)n2)cc(C)c1OCCCc1cc(COCCOCCOCCO)no1
0.04

Every entry's value here was drawn from patent US7371755B1.
